These data points were gathered from patent US9738660B2.

- Assayed Target: STK4 (Homo sapiens, UniProt Q13043)
- Construct: purchased Research Biology Corp. (http://www.reactionbiology.com)
- Sequence (Q13043 whole entry): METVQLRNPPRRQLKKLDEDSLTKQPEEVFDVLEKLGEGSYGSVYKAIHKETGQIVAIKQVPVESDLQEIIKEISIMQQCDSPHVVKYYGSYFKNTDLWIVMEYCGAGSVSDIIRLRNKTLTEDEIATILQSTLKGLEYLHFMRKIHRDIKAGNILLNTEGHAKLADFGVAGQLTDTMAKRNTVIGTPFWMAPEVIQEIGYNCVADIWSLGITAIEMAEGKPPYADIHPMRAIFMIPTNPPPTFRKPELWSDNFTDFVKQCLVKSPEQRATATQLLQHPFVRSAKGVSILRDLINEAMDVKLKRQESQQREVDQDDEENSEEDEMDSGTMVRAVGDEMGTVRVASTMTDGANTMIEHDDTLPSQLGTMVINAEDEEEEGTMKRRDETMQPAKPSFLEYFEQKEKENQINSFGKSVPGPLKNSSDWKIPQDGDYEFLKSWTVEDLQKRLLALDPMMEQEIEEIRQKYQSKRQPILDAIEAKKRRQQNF
- Experiment Summary: Kinase Profiler, residual kinase activity
- Format: biochemical
- Test Parameters: STK4; inhibitor at 500 nM; read-out: percentage of the remaining kinase activity
Parameter: remaining activity at 0.5 µM (%)

Example entries and their recorded answers appear below.
COC1C(N(C)C(=O)C(N)CCC(=O)O)CC2OC1(C)n1c3ccccc3c3c4c(c5c6ccccc6n2c5c31)C(=O)NC4 (stereo not shown) ... 1.9
COC1C(N(C)Cc2ccc(-c3ccccc3)cc2)CC2OC1(C)n1c3ccccc3c3c4c(c5c6ccccc6n2c5c31)C(=O)NC4 (stereo not shown) ... 1.5
COC1C(N(C)C(=O)C(N)Cc2ccc(O)cc2)CC2OC1(C)n1c3ccccc3c3c4c(c5c6ccccc6n2c5c31)C(=O)NC4 (stereo not shown) ... 5.5
COC1C(N(C)C(=O)C(N)Cc2c[nH]cn2)CC2OC1(C)n1c3ccccc3c3c4c(c5c6ccccc6n2c5c31)C(=O)NC4 (stereo not shown) ... 1.8

[a] COC1C(N(C)C(=O)C(N)Cc2cn(C(=O)OC(C)(C)C)c3ccccc23)CC2OC1(C)n1c3ccccc3c3c4c(c5c6ccccc6n2c5c31)C(=O)NC4 (stereo not shown)
[b] COC1C(N(C)C(=O)C(N)CCC(=O)OC(C)(C)C)CC2OC1(C)n1c3ccccc3c3c4c(c5c6ccccc6n2c5c31)C(=O)NC4 (stereo not shown)
[in] Among a and b , whose measured remaining activity at 0.5 µM is the smaller figure? Provide the label of your selected option as the answer.
[out] b
(b: 6%, a: 72.8%)
